# tgt: TRIM21 PRYSPRY (PRYSPRY domain of TRIM21) (Homo sapiens, UniProt P19474, D355A)
# Sequence (P19474 287-465 D355A): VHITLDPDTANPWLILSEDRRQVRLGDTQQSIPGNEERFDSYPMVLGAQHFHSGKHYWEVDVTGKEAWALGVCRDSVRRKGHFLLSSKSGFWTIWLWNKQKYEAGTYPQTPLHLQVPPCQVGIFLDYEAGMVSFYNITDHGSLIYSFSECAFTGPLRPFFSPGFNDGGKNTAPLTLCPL
# test: isothermal titration calorimetry
pKd: −log10 of the molar value.
property_name: pKd

(P) CC(=O)c1ccc2c(c1)N(CCCN(C)C)c1ccccc1S2
(Q) C[C@@H](O)c1ccc2c(c1)N(CCCN(C)C)c1ccccc1S2 [(R)-ACE-OH]
(R) C[C@H](O)c1ccc2c(c1)N(CCCN(C)C)c1ccccc1S2 [(S)-hydroxyl-acepromazine]
// smallest pKd at index 0, largest at the end Lab note: final answer is the ordered label list.
R, Q, P
(R: 4.75, Q: 5.04, P: 5.25)
